experiment: In-vitro half-life in rat liver microsomes; type: in vitro ADME; settings: Rat liver microsomes 0.5 mg/mL; 1 μg/mL drug; NRS; read-out: Metabolic Half-life
Collected half-life at 1 μg/mL values appear next to each entry.

GET /values?readout=half-life at 1 μg/mL&item= COc1cc2c(NC3CCOCC3)nc(N3CCCN(C)CC3)nc2cc1OCCCN1CCCC1 0.367 h

GET /values?readout=half-life at 1 μg/mL&item= COc1cc2c(NC3CCN(C(C)C)CC3)nc(-n3ccnc3)nc2cc1OCCCN1CCCC1 > 1 h

GET /values?readout=half-life at 1 μg/mL&item= COc1cc2c(NC3COC3)nc(N3CCC(F)(F)CC3)nc2cc1OCCCN1CCCC1 > 1 h

GET /values?readout=half-life at 1 μg/mL&item= COc1cc2c(N[C@H]3CCCNC3)nc(N3CCCC3)nc2cc1OCCCN1CCCC1 0.55 h

GET /values?readout=half-life at 1 μg/mL&item= COc1cc2c(NC3CCN(C(C)C)CC3)nc(C#N)nc2cc1OCCCN1CCCC1 > 1 h

GET /values?readout=half-life at 1 μg/mL&item= COc1cc2c(NC3CCN(C(C)C)CC3)nc(N3CCC3)nc2cc1OCCCN1CCCC1 > 1 h

GET /values?readout=half-life at 1 μg/mL&item= COc1cc2c(Nc3ccncc3)nc(-n3ccnc3)nc2cc1OCCCN1CCCC1 > 1 h

GET /values?readout=half-life at 1 μg/mL&item= COc1cc2c(NC3CCS(=O)(=O)CC3)nc(N3CCC(F)(F)CC3)nc2cc1OCCCN1CCCC1 > 1 h

###

test system: A-498; assay: A-498 kidney cancer cell viability (Real-Time-Glo); format: cell-based; settings: Homo sapiens, A498; 72 hr; read-out: IC50, Cell line: A-498
pIC50: −log10 of the molar value.
measured-property: pIC50

Observe how each entry below is paired with its result.
COc1cc2c(NC3CCN(C(C)C)CC3)nc(C#N)nc2cc1OCCCN1CCCC1 :: 5.00 to 5.30
COCCN1CCC(Nc2nc(N3CCC(F)(F)CC3)nc3cc(OCCCN4CCCC4)c(OC)cc23)CC1 :: 5.00 to 5.30
COc1cc2c(NC3CCN(C(C)C)CC3)nc(N3CCC3)nc2cc1OCCCN1CCCC1 :: 5.00 to 5.30

GET /values?readout=pIC50&item= COc1cc2c(NC3CCN(C(C)C)CC3)nc(-n3ccnc3)nc2cc1OCCCN1CCCC1 5.00 to 5.30

GET /values?readout=pIC50&item= COc1cc2c(NC3CCN(C(C)C)CC3)nc(N3CCC(F)(F)CC3)nc2cc1OCCCN1CCCC1 [Compound 400, reference compound] 4.70 to 5.00

GET /values?readout=pIC50&item= COc1cc2c(Nc3ccncc3)nc(N3CCC(F)(F)CC3)nc2cc1OCCCN1CCCC1 5.30 to 6.00

###

pIC50: −log10 of the molar value.
Values of pIC50 reported for CYP2C19 (Homo sapiens) appear below.

Observe how each entry below is paired with its result.
COc1cc2c(NC3CCS(=O)(=O)CC3)nc(N3CCC(F)(F)CC3)nc2cc1OCCCN1CCCC1 :: < 4.00
COc1cc2c(NC3CCS(=O)(=O)CC3)nc(N3CCN(C)CC3)nc2cc1OCCCN1CCCC1 :: < 4.00
COc1cc2c(NC3CCS(=O)(=O)CC3)nc(N3CCS(=O)(=O)CC3)nc2cc1OCCCN1CCCC1 :: < 4.00
COc1cc2c(NC3CCS(=O)(=O)CC3)nc(N3CCOCC3)nc2cc1OCCCN1CCCC1 :: < 4.00
COc1cc2c(NC3CCNCC3)nc(N3CCC(F)(F)CC3)nc2cc1OCCCN1CCCC1 :: < 4.00

GET /values?readout=pIC50&item= COc1cc2c(NC3CCOCC3)nc(N3CCS(=O)(=O)CC3)nc2cc1OCCCN1CCCC1 < 4.00

GET /values?readout=pIC50&item= COc1cc2c(NC3CCOCC3)nc(N3CCC3)nc2cc1OCCCN1CCCC1 < 4.00

GET /values?readout=pIC50&item= COc1cc2c(N[C@@H]3CCCNC3)nc(N3CCCC3)nc2cc1OCCCN1CCCC1 < 4.00
